# koff per entry
system-under-test: T1, human IL-22 (human, UniProt Q9GZX6 34-179)
T1 construct: also called hIL-22; hIL22
T1 sequence (looked up): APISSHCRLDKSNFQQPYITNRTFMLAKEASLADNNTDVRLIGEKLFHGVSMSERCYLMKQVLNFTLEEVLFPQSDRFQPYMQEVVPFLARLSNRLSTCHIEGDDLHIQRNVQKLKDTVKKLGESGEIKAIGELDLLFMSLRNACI
measurement-description: SPR (SierraSensors SPR-2), hIL-22 immobilized on chip, antibody injected, Langmuir 1:1 model
Kindly provide the numeric value in s⁻¹ only, without the unit symbol.

Known results for binders:
{"columns": ["binder", "koff / s⁻¹"],
 "data": [
  ["CPS-09 (antibody, V domains shown, Mutant of humanized hum10, whole antibody expressed in CHO cells; also called CPS-hit-09; CSP09) VH: QVQLVQSGAEVKKPGASVKVSCKASGYIFRSYWIHWIRQPPGKGLEWIGRIYPGTGRTYYNEKFKGRVTISADKSISTAYLQWSSLKASDTAMYYCARSYDYSVAYWGQGTLVTVSS VL: AIQLTQSPSSLSASVGDRVTITCSASSSVSYMHWYLQKPGQSPQLLIYETRKLASGVPSRFSGSGSGTDFTFTISSLEAEDAATYYCQQWSSNPYITFGQGTKVEIKR", "2.18e-05"],
  ["CPS-04 (antibody, V domains shown, Mutant of humanized hum10, whole antibody expressed in CHO cells; also called LC-07 / HC-09) VH: QVQLVQSGAEVKKPGASVKVSCKASGYIFRSYWIHWIRQPPGKGLEWIGRIYPGTGNTYYNRKFKGRVTISADKSISTAYLQWSSLKASDTAMYYCARSYDSSVAYWGQGTLVTVSS VL: AIQLTQSPSSLSASVGDRVTITCSASSSVSYMHWYLQKPGQSPQLLIYKTSKLLSGVPSRFSGSGSGTDFTFTISSLEAEDAATYYCQQWSSNPYITFGQGTKVEIKR", "3.74e-05"]
]}

API: the following record is the query input.
QUERY: Item CPS-02 (antibody, V domains shown, Mutant of humanized hum10, whole antibody expressed in CHO cells; also called CPS-hit-02; CSP02) VH: QVQLVQSGAEVKKPGASVKVSCKASGYIFRSYWIHWIRQPPGKGLEWIGRIYPGTGRTYYNEKFKGRVTISADKSISTAYLQWSSLKASDTAMYYCARSYDSSVAYWGQGTLVTVSS VL: AIQLTQSPSSLSASVGDRVTITCSASSSVSYMHWYLQKPGQSPQLLIYKTRKLASGVPSRFSGSGSGTDFTFTISSLEAEDAATYYCQQWSSNPYITFGQGTKVEIKR : provide koff
RESULT: 4.67e-05
